Sourced from PubChem BioAssay

# assay.comment: LAP4-GFP expression modulators in yeast, confirmation, cell-based, cherry picks, flow cytometry, mother/daughter gates (AID 2271);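 further: ratio of sample to DMSO plate mean so 100% equals DMSO level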
# experimental.parameters: S. cerevisiae LAP4-GFP strain, 3 h, at 10 µM, 100 means same as DMSO control
Calls of active or inactive are those of the source.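 How the source made its calls: active means GFP response above 150% of the DMSO control; inconclusive means fewer than 70 events counted in any yeast strain; inactive means the rest.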
Outcome (select one): YES for active, NO for inactive

Study these solved cases before continuing.
[[record]]
molecule = "CCc1nnc(N2C(=O)c3cccc4cccc(c34)C2=O)s1"
label_class = "NO"

[[record]]
molecule = "Cc1ccc(Sc2ncnc3onc(C)c23)cc1"
label_class = "NO"

[[record]]
molecule = "COc1cccc(/C=N/Nc2nc(-c3cccnc3)nc3ccccc23)c1"
label_class = "NO"


For this molecule, state the assay outcome: O=C1C=CC(=O)N1N(c1ccccc1)c1ccccc1 YES

What did this assay record as the result for CCN(Cc1ccccc1)S(=O)(=O)c1ccc(C(=O)Nc2nnc(C)o2)cc1 ? NO

###

# assay.comment: AGP1-GFP expression modulators, hit retest, confirmation, cell-based, flow cytometry, S. cerevisiae, cherry picks (AID 2273);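 further: median GFP channel fluorescence over the whole cell population gate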
# experimental.parameters: S. cerevisiae AGP1-GFP strain, 3 h, at 10 µM
Measured GFP response, % of DMSO, listed per entry.
Give the number; % is assumed, so skip it.

[[record]]
compound = "CCOC(=O)c1ccc(N=Cc2nc(-c3ccccc3)oc2OC(C)=O)cc1"
units_of_measure = "%"
quantitative_result = 92.2

[[record]]
compound = "Cc1ccc(N2C3=C(C(=O)CC(C)(C)C3)C(c3cn(C)nc3C)C3=C2CC(C)(C)CC3=O)cc1"
units_of_measure = "%"
quantitative_result = 103

[[record]]
compound = "Cc1ccc(N2C(=O)C3C4C=CC(CNC(=S)N5CCN(c6cccc(C)c6)C(C)C5)(O4)C3C2=O)cc1 (configuration not stated)"
units_of_measure = "%"
quantitative_result = 103

[[record]]
compound = "CCOC(=O)Cc1csc(NC(=O)c2sc3nc4cc(C)ccc4cc3c2N)n1"
units_of_measure = "%"
quantitative_result = 104

[[record]]
compound = "N#Cc1nccnc1S(=O)(=O)c1cccs1"
units_of_measure = "%"
quantitative_result = 96.1

[[record]]
compound = "CCC(=O)Oc1oc(-c2ccccc2)nc1C=Nc1ccc(C)cc1"
units_of_measure = "%"
quantitative_result = 102

[[record]]
compound = "COc1ccc(Br)cc1/C=N/NC(=O)Cn1nnnc1N"
units_of_measure = "%"
quantitative_result = 95.8

[[record]]
compound = "O=C1C=CC(=O)N1c1ccc(Sc2ccc([N+](=O)[O-])cc2)cc1"
units_of_measure = "%"
quantitative_result = 106

[[record]]
compound = "O=C(/C=C/Sc1ncn[nH]1)c1ccc(Cl)cc1"
units_of_measure = "%"
quantitative_result = 89.5

[[record]]
compound = "CCc1ccc2c(c1)C1(NN=C(c3cccc4ccccc34)S1)C(=O)N2 (configuration not stated)"
units_of_measure = "%"
quantitative_result = 102


I would be grateful if you could share the reported GFP response, % of DMSO for Cc1ccc(S(=O)(=O)N(Cc2ccc(F)cc2)Cc2ccco2)cc1 . 97.9

Quick one: GFP response, % of DMSO of COc1cc(NC(=O)c2ccc(C)cc2C)ccc1NC(=O)c1cc2ccccc2o1 ? 105

Record request: GFP response, % of DMSO value, item C/C(CC(=O)Nc1cc(C)ccn1)=N\NC(=O)c1cccc(F)c1 94.1

Item O=C(NCc1ccc2c(c1)OCO2)c1nc(S(=O)(=O)Cc2ccccc2F)ncc1Cl has what recorded GFP response, % of DMSO? 100

Quick one: GFP response, % of DMSO for Fc1ccc(C2CC(c3ccccc3)n3ncnc3N2)cc1 (configuration not stated) ? 94.3

Requested field: GFP response, % of DMSO. Item: Cc1ccc(/C=C/C(=O)c2ccc([N+](=O)[O-])o2)cc1 107

Please report the recorded GFP response, % of DMSO for CN(C(=O)c1ccccc1Cl)c1ccccc1 . 103

Which GFP response, % of DMSO is listed for COc1ccc(CCNc2nc(-c3sc(C)nc3C)cs2)cc1OC ? 93.7

Form field: reported GFP response, % of DMSO of C[n+]1ccc(/C=C/c2c[nH]c3ccccc23)cc1 107

Name the reported GFP response, % of DMSO value associated with the compound Clc1ccc(-c2nnnn2-c2ccc(Cl)cc2)cc1 95.9

Can you share its GFP response, % of DMSO? I mean this compound: CC1(C)CC(=O)C2=C(C1)OC1=C(C(=O)CC(C)(C)C1)C2c1ccc(O)cc1O 96.3

# GFP response, % of DMSO lookup, item CCCCNC(=O)c1c(O)c2cccc3c2n(c1=O)CCC3 100

Look up GFP response, % of DMSO for this compound: COc1cc(NC(=O)c2ccccc2)ccc1NC(=O)c1cc2ccccc2o1 101

Reported GFP response, % of DMSO, compound Cc1nnc(OCc2nc3ccccc3n2C)c2ccccc12 : ____ 94.3

Report GFP response, % of DMSO for CCOCCCNC(=O)/C(C#N)=C/c1ccc([N+](=O)[O-])o1 please. 122

Param item = COC(=O)c1ccc2nc(Nc3nc4ccc(F)cc4s3)sc2c1 ; retrieve measured GFP response, % of DMSO. 97

Value lookup for GFP response, % of DMSO; key = COc1ccc(NC(=O)/C(Cl)=C(/Cl)S(=O)Cc2ccccc2)cn1 (configuration not stated) 103

Using the record for CC(Oc1ccc(Cl)cc1Cl)C(=O)NC1=NN(c2ccccc2)C(=O)C1 (configuration not stated) , report its GFP response, % of DMSO. 102

Recorded GFP response, % of DMSO of Cc1ccccc1C(=O)Nc1cccc(N)c1 , please. 105

Using the record for O=C(O)Cc1sc(Nc2ccc(F)cc2)nc1-c1cccs1 , report its GFP response, % of DMSO. 108

Which GFP response, % of DMSO reading was recorded for the compound COc1ccc(C(=O)NC(=S)Nc2ccc(CN3CCOCC3)cc2)cc1 ? 101

Could you tell me which GFP response, % of DMSO is on file for COc1ccc(CC(=O)Oc2ccccc2C)cc1 ? 94.3
